B1: HDV Ribozyme (parent)
chain: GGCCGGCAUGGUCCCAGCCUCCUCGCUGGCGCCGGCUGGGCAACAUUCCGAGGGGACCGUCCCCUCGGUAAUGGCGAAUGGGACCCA

Variants of: B1
Assay: self-cleavage, relative activity (ratio to wild type); higher = more cleavage; co-transcriptional
value-type: self-cleavage
Keep the answer to the number alone.

Please report self-cleavage for the following variant: GGCCGGCAUGGUCCCAGCCUCCCCGCUGGCGCCGGCUGGGCAACAUUCCGAGGGGACCGUCCCCUCGGUAAUGGCGUAUGGGACCCA [U23C A77U]
0.353

Please report self-cleavage for the following variant: GGCCGGCAUGGUCCCAGCCUCCUCGCUGGCGCCGGCUGGGCAACAUUCCGAGGGGACCGUCCCCUCGGUCAUGGCGUAUGGGACCCA [A70C A77U]
0.237

Please report self-cleavage for the following variant: GGCCGGCAUGGUCCCAGCCUCCUCGCUGGCGCCGGCUGGGCAACAUUCCGAGGGGACCGUCCCCUCGGCAAUGGCGAGUGGGACCCA [U69C A78G]
0.831
